Assignment: determine reported TGI for the given compounds.
- System: CAKI-1 renal
- assay_comment: NCI tumour cell line growth inhibition, 48 h

Please review the following examples before continuing.
compound	system_name	TGI
COc1cccc(/C=N/[N-]C(N)=O)c1[O-].[OH3+].[Pd+2]	CAKI-1 renal	> 100 µM
CC1=NNC(=O)[C@H]2[C@H]1CCC1[C@@H]2CC[C@]2(C)[C@@H](O)CC[C@@H]12 (stereo partly drawn)	CAKI-1 renal	> 100 µM
CC(N)=O.[Cl][Pt][Cl].[NH-]c1ccn(C2OC(CO)C(O)C2O)c(=O)n1 (stereo not drawn)	CAKI-1 renal	> 100 µM
CCOC(=O)c1cc2cc(OCc3ccccc3)ccc2[nH]1	CAKI-1 renal	> 100 µM

For each of the compounds below, state TGI.
1. O=C(O)c1ccccc1CC(Cc1ccccc1)C(=O)O (stereo not drawn)
2. CC1(CCCCO)C=CC(S(=O)(=O)c2ccccc2)CC1 (stereo not drawn)
3. N=C(N)c1ccc(N=Nc2c(O)ccc3cc(O)ccc23)cc1
4. CCOc1ccc(/C=C2/C(=O)N=C(N)N=C2N)cc1OCC
5. COC(=O)[C@]1(C)[C@H]2C[C@H]3O[C@H]4[C@H](O)[C@@H](O)OC(CC(O)C(C5=CC(=O)OC5)C(C5=CC(=O)OC5)C(O)CC56CCCCC7[C@@H](C)[C@H](C[C@H]8[C@](C)(C(=O)OC)[C@H](O)CC[C@]78C)O[C@H]([C@@H](O)[C@H](O)O5)[C@H]6O)(CCCCC([C@@H]3C)[C@]2(C)CC[C@@H]1O)[C@H]4O (stereo partly drawn)
6. CCCCC1Cc2cc(OC)ccc2-c2n1c1cc(OC)ccc1[n+]2C (stereo not drawn) (tested in a mixture with another compound)
7. O=C(CCC(=O)C1Cc2ccccc2C1=O)Nc1cccc(C(F)(F)F)c1 (stereo not drawn)

["> 100 µM", "23.9 µM", "> 100 µM", "> 100 µM", "0.849 µM", "> 100 µM", "> 100 µM"]

Would you mind listing TGI for each of the following compounds?
1. CCOC(=O)C1=CSC2=NC3=C(CCC/C3=C\c3cc(OC)c(OC)c(OC)c3)C(c3cc(OC)c(OC)c(OC)c3)N12 (stereo not drawn)
2. Cn1cnnc1SC(F)(F)c1nc2ccccc2o1
3. COC(=O)C1=Nc2ccc(F)cc2/C1=C/c1sc(=S)[nH]c1O
4. O=C1NC2=NN=C(c3ccc(Br)cc3)CN2NC12c1ccccc1-c1ccccc12
5. Nc1c(-c2nc3ccccc3s2)[n+]([O-])c2ccccc2[n+]1[O-]

> 100 µM
> 100 µM
7 µM
> 100 µM
81.8 µM

Lab note: each compound below needs its TGI filled in.
1. CCOC(=O)C1=C(C)N(Cc2ccc(Cl)cc2Cl)[C@]2(C#N)C(O)=C(Cl)C(Cl)=C(O)[C@]12C#N
2. CC(C)C/C(=N\NC(=O)c1ccncc1)c1cc(Cl)ccc1O

> 100 µM
12.6 µM
